- testedOn: p110β/p85 (Homo sapiens)
- Sequence (P42338 whole entry, species assumed): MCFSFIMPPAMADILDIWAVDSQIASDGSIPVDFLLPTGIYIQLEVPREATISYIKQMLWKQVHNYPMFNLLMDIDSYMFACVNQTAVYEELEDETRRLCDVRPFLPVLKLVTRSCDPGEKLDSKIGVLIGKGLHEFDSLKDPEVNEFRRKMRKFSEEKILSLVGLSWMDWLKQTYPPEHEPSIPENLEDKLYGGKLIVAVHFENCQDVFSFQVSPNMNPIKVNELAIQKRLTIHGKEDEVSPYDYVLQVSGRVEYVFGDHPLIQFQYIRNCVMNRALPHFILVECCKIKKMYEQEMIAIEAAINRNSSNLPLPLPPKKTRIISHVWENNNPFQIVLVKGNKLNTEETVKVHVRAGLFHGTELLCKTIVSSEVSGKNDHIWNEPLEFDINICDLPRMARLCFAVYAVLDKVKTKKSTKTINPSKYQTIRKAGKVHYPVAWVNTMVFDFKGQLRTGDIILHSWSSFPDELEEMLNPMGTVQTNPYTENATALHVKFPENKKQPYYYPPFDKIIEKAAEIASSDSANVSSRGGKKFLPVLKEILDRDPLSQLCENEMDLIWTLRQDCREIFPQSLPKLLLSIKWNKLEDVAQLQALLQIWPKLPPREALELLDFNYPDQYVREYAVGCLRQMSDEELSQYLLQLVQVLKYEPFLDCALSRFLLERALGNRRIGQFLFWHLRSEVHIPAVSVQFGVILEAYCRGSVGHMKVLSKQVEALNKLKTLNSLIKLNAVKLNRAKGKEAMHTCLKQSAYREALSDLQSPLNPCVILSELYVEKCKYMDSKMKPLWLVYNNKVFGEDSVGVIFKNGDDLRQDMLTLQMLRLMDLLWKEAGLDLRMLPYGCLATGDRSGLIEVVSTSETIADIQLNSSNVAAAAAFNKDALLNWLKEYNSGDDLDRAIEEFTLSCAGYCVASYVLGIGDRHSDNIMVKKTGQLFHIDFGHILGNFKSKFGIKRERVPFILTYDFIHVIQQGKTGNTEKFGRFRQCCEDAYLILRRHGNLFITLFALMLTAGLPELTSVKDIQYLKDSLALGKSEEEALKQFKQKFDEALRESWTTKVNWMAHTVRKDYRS
- Sequence (P27986 whole entry partner, species assumed): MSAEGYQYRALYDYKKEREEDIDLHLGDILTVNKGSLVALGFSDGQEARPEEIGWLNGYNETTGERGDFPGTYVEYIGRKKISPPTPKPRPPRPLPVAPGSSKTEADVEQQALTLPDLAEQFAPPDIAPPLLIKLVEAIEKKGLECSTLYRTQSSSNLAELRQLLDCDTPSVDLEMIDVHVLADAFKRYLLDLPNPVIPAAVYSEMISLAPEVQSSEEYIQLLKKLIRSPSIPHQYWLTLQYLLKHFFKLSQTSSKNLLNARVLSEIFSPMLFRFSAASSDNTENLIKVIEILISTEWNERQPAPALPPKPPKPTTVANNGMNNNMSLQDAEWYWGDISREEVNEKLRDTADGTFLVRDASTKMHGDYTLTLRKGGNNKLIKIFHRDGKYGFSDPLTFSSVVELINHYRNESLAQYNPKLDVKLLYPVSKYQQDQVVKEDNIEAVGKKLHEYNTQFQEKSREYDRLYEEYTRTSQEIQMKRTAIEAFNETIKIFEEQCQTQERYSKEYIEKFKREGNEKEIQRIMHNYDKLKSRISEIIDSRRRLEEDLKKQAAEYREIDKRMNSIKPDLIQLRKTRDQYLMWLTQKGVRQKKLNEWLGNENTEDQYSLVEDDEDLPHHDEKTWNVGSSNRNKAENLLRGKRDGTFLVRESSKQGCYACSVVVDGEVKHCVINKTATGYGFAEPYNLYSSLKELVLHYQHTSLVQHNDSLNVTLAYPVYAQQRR
- testDescription: Inhibition of isolated enzyme p110β/p85 (lipid kinase, [γ-33P]ATP, TLC)
- particulars: recombinant enzyme, 100 μM ATP, nine concentrations, average of two experiments
measurementName: IC50

Example molecules with recorded IC50:
q: Given COc1cccc2c1nc(C(F)F)n2-c1nc(Nc2ccc(N(C)S(C)(=O)=O)nc2)nc(N2CCOCC2)n1 [Example 101] , respond with its IC50.
a: 100 to 1000 nM

q: Tell me its IC50 given COc1cccc2c1nc(C(F)F)n2-c1nc(N2CCOCC2)cc(N(C)C2CCN(S(C)(=O)=O)CC2)n1 [Example 6] as the entry.
a: < 100 nM

Further cases:
q: Entry CN(C)CCCOc1cccc2c1nc(C(F)F)n2-c1nc(OC2CCN(S(C)(=O)=O)CC2)nc(N2CCOCC2)n1 [Example 7] needs its IC50 filled in; supply it.
a: > 1000 nM

q: Give recorded IC50. C=CS(=O)(=O)N1CCN(c2nc(N3CCOCC3)nc(-n3c(C(F)F)nc4c(OC)cccc43)n2)CC1 [Example 3]
a: < 100 nM

q: Please list IC50 recorded for the molecule COc1cccc2c1nc(C(F)F)n2-c1nc(N2CCOCC2)nc(N(CCCN(C)C)C2CCN(S(=O)(=O)CCl)CC2)n1 [Example 59]
a: > 1000 nM

---

Structures can show the parent of a compound that is named as a salt.
measurementName: melting point

// known answers, use as guide
q: Fill in melting point for record COc1cccc2c1nc(C(F)F)n2-c1nc(N2CCOCC2)nc(N(C)[C@@H]2CCN(S(C)(=O)=O)C2)n1
a: 238 to 240 °C

q: Tell me measured melting point for COc1cccc2c1nc(C(F)F)n2-c1nc(N[C@@H]2CCN(S(C)(=O)=O)C2)nc(N2CCOCC2)n1 please.
a: 260 to 261 °C

q: Give the measured melting point for COc1cccc2c1nc(C(F)F)n2-c1nc(N2CCOCC2)nc(N2CCC(NS(C)(=O)=O)C2)n1 (stereo in doubt) [Example 38]
a: 290 to 292 °C

q: Return melting point for the following molecule: COc1cccc2c1nc(C(F)F)n2-c1nc(N2CCOCC2)nc(N(CCCN(C)C)C2CCN(S(=O)(=O)CCl)CC2)n1 (as salt: hydrochloride)
a: 222 to 225 °C

q: Quickly give me recorded melting point for COc1cccc2c1nc(C(F)F)n2-c1nc(N2CCOCC2)nc(N2CCCC(NS(C)(=O)=O)C2)n1 (stereo in doubt) [Example 46]
a: 220 to 221 °C

q: Return the recorded melting point value; entry: C=CS(=O)(=O)N1CCN(c2nc(N3CCOCC3)nc(-n3c(C(F)F)nc4c(OC)cccc43)n2)CC1
a: 242 to 244 °C

q: Name the recorded melting point of the molecule listed here: COc1cccc2c1nc(C(F)F)n2-c1nc(N2CCOCC2)nc(N2CCN(S(C)(=O)=O)CC2)n1
a: 311 to 314 °C

q: Supply melting point value. Item: COc1cccc2c1nc(C(F)F)n2-c1nc(N2CCOCC2)nc(N2CCC(N(C)S(C)(=O)=O)C2)n1 (stereo in doubt) [Example 37]
a: 242 to 244 °C

q: # return recorded melting point for entry COc1cccc2c1nc(C(F)F)n2-c1nc(N2CCOCC2)nc(N2CCCC(N(C)S(C)(=O)=O)C2)n1 (stereo in doubt) [Example 47]
a: 221 to 223 °C

q: Indicate the recorded melting point value for this molecule: COc1cccc2c1nc(C(F)F)n2-c1nc(N[C@H]2CCCN(S(C)(=O)=O)C2)nc(N2CCOCC2)n1
a: 239 to 241 °C

More entries:
q: Indicate its recorded melting point; the molecule in question is COc1cccc2c1nc(C(F)F)n2-c1nc(OC2CCN(S(=O)(=O)CCN3CCOCC3)CC2)nc(N2CCOCC2)n1 (as salt: hydrochloride)
a: 255 to 259 °C

q: Give recorded melting point. COc1cccc2c1nc(C(F)F)n2-c1nc(N2CCOCC2)nc(N2CCC(N(CCCN(C)C)S(=O)(=O)CCl)CC2)n1 (as salt: hydrochloride)
a: 260 to 263 °C

q: // Input: COc1cccc2c1nc(C(F)F)n2-c1nc(N2CCOCC2)cc(N(C)C2CCN(S(C)(=O)=O)CC2)n1 . Output its melting point only.
a: 191 to 193 °C

q: Output melting point of COc1cccc2c1nc(C(F)F)n2-c1nc(N2CCOCC2)nc(N2CCC(NS(=O)(=O)CCl)CC2)n1
a: 230 to 232 °C

Data origin, for the record: patent US8772287B2
